PROCEDURE TEXT: Drug level in ICR mouse plasma at 10 mg/kg, po administered via gavage measured after 0.25 to 24 hrs by mass spectrometric analysis
Assay type: ADME, organism-based
MEASUREMENT PARAMETERS: in vivo
ENDPOINT NAME: concentration (nM)

INSERT INTO measurements (structure_smiles_string, units_label, reported_measurement) VALUES
  ('CNC[C@@H](O)CN1CCc2c(cccc2OCc2ccc(-c3nccs3)cc2)C1', 'nM', 120);

* * *

PROCEDURE TEXT: Half life in ICR mouse at 10 mg/kg, po administered via gavage by mass spectrometric analysis
Format: ADME, organism-based
MEASUREMENT PARAMETERS: in vivo
ENDPOINT NAME: half-life

INSERT INTO measurements (structure_smiles_string, reported_measurement) VALUES
  ('CNC[C@@H](O)CN1CCc2c(cccc2OCc2ccc(-c3nccs3)cc2)C1', '24.1 h');

* * *

SYSTEM TESTED: Histone-arginine methyltransferase CARM1 (Homo sapiens)
Sequence (Q86X55 whole entry): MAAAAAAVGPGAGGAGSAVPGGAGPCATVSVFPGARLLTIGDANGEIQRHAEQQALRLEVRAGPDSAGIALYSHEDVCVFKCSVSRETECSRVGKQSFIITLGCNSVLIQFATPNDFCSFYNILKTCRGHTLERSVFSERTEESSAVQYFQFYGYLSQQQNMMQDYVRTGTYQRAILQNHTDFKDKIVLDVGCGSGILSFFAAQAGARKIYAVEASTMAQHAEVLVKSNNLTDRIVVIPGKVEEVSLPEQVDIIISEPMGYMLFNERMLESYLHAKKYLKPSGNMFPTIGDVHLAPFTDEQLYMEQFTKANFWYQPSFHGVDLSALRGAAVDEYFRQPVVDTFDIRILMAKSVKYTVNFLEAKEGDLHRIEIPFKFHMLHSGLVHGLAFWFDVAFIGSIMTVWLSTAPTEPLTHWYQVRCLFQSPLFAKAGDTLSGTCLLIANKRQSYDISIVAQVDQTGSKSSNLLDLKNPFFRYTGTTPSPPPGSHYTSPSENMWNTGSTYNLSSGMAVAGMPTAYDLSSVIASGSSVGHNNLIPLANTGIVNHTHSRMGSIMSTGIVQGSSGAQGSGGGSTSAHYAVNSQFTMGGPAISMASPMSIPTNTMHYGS
PROCEDURE TEXT: Inhibition of PRMT4 in human MOLM13 cells assessed as reduction in PABP1 dimethylation measured after 96 hrs by Western blotting analysis
Format: cell-based
pIC50: −log10 of the molar value.
ENDPOINT NAME: pIC50

INSERT INTO assay_data (structure_smiles_string, endpoint_name, reported_measurement) VALUES
  ('CNC[C@@H](O)CN1CCc2c(cccc2OCc2ccc(-c3nccs3)cc2)C1', 'pIC50', 6.26);

* * *

SYSTEM TESTED: Protein arginine N-methyltransferase 1 (Homo sapiens)
Sequence (Q99873 whole entry): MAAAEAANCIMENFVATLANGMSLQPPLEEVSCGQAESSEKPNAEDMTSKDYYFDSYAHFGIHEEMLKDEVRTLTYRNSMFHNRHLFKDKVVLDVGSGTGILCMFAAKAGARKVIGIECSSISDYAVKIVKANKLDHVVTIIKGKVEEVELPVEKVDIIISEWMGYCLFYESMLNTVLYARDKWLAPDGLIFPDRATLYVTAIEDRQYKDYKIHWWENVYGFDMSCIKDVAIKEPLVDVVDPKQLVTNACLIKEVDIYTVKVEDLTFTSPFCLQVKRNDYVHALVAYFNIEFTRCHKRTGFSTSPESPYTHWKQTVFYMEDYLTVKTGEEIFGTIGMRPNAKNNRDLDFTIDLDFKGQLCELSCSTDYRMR
pIC50: −log10 of the molar value.
ENDPOINT NAME: pIC50

INSERT INTO measurements (structure_smiles_string, endpoint_name, reported_measurement) VALUES
  ('CNC[C@@H](O)CN1CCc2c(cccc2OCc2ccc(-c3nccs3)cc2)C1', 'pIC50', 5.07);

* * *

System: MOLM-13
PROCEDURE TEXT: Antiproliferative activity against human MOLM13 cells measured after 6 days by CCK8/SRB assay
MEASUREMENT PARAMETERS: MOLM-13, 144 h
pIC50: −log10 of the molar value.
ENDPOINT NAME: pIC50

INSERT INTO measurements (structure_smiles_string, system_tested, endpoint_name, reported_measurement) VALUES
  ('CNC[C@@H](O)CN1CCc2c(cccc2OCc2ccc(-c3nccs3)cc2)C1', 'MOLM-13', 'pIC50', 5.16);
